system: HT1080; test: relative viability vs DMSO control (72 h) (fraction); higher = more viable cells; settings: 0.3704 µM
ENDPOINT_NAME: relative viability
Reply with the value as a number alone.

Study these solved cases before continuing.
COMPOUND	relative viability
CC1(COc2ccc3c(c2)ncn3-c2ccc3cccc(N4CCC(N)CC4)c3n2)COC1	1.05
CC(C)NC[C@@H](C(=O)N1CCN(c2ncnc3c2[C@H](C)C[C@H]3O)CC1)c1ccc(Cl)cc1	1.07
Cn1ncnc1[C@H]1c2n[nH]c(=O)c3cc(F)cc(c23)N[C@@H]1c1ccc(F)cc1	0.797

Now for a further compound.
Quick one: relative viability for Clc1ccc(Nc2nnc(Cc3ccncc3)c3ccccc23)cc1 ?
1

---

test system: G401; test: relative viability vs DMSO control (72 h) (fraction); higher = more viable cells; conditions: 0.04115 µM
ENDPOINT_NAME: relative viability
Reply with the value as a number alone.

COMPOUND	STUDY_SYSTEM	ENDPOINT_NAME	REPORTED_MEASUREMENT
Cc1ccc(Nc2nccc(N(C)c3ccc4c(C)n(C)nc4c3)n2)cc1S(N)(=O)=O	G401	relative viability	0.949
Cc1cc2c(F)c(Oc3ncnn4cc(OC[C@@H](C)O)c(C)c34)ccc2[nH]1	G401	relative viability	0.979
COCCNc1cc(NC(=O)N2CCCc3cc(CN4CCN(C)CC4=O)c(C=O)nc32)ncc1C#N	G401	relative viability	0.93

Now for a further compound.
Quick one: relative viability for O=C(Nc1ccc(OC(F)(F)Cl)cc1)c1cnc(N2CC[C@@H](O)C2)c(-c2cc[nH]n2)c1 ?
0.981

---

test system: SW1353; assay: relative viability vs DMSO control (72 h) (fraction); higher = more viable cells; conditions: 3.333 µM
Readings of relative viability for the listed compounds
Reply with the value as a number alone.

Quick one: relative viability for COc1cc(OC)c(/C=C/S(=O)(=O)Cc2ccc(OC)c(NCC(=O)O)c2)c(OC)c1 ?
0.428

Quick one: relative viability for Clc1ccc(Nc2nnc(Cc3ccncc3)c3ccccc23)cc1 ?
0.934

Quick one: relative viability for CC(C)(C)c1nc(-c2cccc(NS(=O)(=O)c3c(F)cccc3F)c2F)c(-c2ccnc(N)n2)s1 ?
0.89

Quick one: relative viability for COc1cc(CCc2cc(NC(=O)c3ccc(N4CC(C)NC(C)C4)cc3)n[nH]2)cc(OC)c1 (centres undefined) ?
0.829

---

test system: SYO-1; assay: relative viability vs DMSO control (72 h) (fraction); higher = more viable cells; conditions: 1.111 µM
ENDPOINT_NAME: relative viability
Reply with the value as a number alone.

Study these solved cases before continuing.
COMPOUND	relative viability
Cn1cc(C2=C(c3cn(C4CCN(Cc5ccccn5)CC4)c4ccccc34)C(=O)NC2=O)c2ccccc21	1.01
CC(C)NC[C@@H](C(=O)N1CCN(c2ncnc3c2[C@H](C)C[C@H]3O)CC1)c1ccc(Cl)cc1	0.636
COCCNc1cc(NC(=O)N2CCCc3cc(CN4CCN(C)CC4=O)c(C=O)nc32)ncc1C#N	0.867

Quick one: relative viability for CN1CC[C@@H](NC(=O)Nc2ccc(C#N)cc2)C[C@@H]1c1nc2ccccc2[nH]1 ?
0.999

Quick one: relative viability for O=S(=O)(c1cccc2cnccc12)N1CCCNCC1 ?
0.97

Quick one: relative viability for O=C1NC(=O)[C@@H](c2cn3c4c(cccc24)CCC3)[C@@H]1c1c[nH]c2ccccc12 [Tivantinib] ?
0.327

Quick one: relative viability for Cc1ccc(Nc2nccc(N(C)c3ccc4c(C)n(C)nc4c3)n2)cc1S(N)(=O)=O ?
0.506

Quick one: relative viability for C[C@]12O[C@H](C[C@]1(O)CO)n1c3ccccc3c3c4c(c5c6ccccc6n2c5c31)CNC4=O ?
0.0874

---

Readings of relative viability for the listed compounds
system: SW982; experiment: relative viability vs DMSO control (72 h) (fraction); higher = more viable cells; conditions: 0.00457 µM
Reply with the value as a number alone.

Study these solved cases before continuing.
COMPOUND	STUDY_SYSTEM	relative viability
CC(C)NC[C@@H](C(=O)N1CCN(c2ncnc3c2[C@H](C)C[C@H]3O)CC1)c1ccc(Cl)cc1	SW982	1
COc1cc(CCc2cc(NC(=O)c3ccc(N4CC(C)NC(C)C4)cc3)n[nH]2)cc(OC)c1 (stereo not drawn)	SW982	1.02

Quick one: relative viability for Cc1ccc(Nc2nccc(N(C)c3ccc4c(C)n(C)nc4c3)n2)cc1S(N)(=O)=O ?
1.03

Quick one: relative viability for CC1(C)CC=C(c2nc(C3CC(C)(C)OC(C)(C)C3)ccc2NC(=O)c2nc(C#N)c[nH]2)CC1 ?
1.07

Quick one: relative viability for CNC(=O)c1nnc(NC(=O)C2CC2)cc1Nc1cccc(-c2ncn(C)n2)c1OC ?
1.04

Quick one: relative viability for CC#CC(=O)N1CCC[C@H]1c1nc(-c2ccc(C(=O)Nc3ccccn3)cc2)c2c(N)nccn12 ?
1.05

Quick one: relative viability for CCN1C(=O)N(c2c(F)c(OC)cc(OC)c2F)Cc2cnc3[nH]c(CN4CCOCC4)cc3c21 ?
1

Quick one: relative viability for Cc1cc2c(F)c(Oc3ncnn4cc(OC[C@@H](C)O)c(C)c34)ccc2[nH]1 ?
1.07

---

system: RD-ES; assay: relative viability vs DMSO control (72 h) (fraction); higher = more viable cells; details: 0.1235 µM
ENDPOINT_NAME: relative viability
Reply with the value as a number alone.

COMPOUND	STUDY_SYSTEM	relative viability
COc1cc(Nc2ncc(F)c(Nc3ccc4c(n3)N(COP(=O)(O)O)C(=O)C(C)(C)O4)n2)cc(OC)c1OC [Fostamatinib]	RD-ES	0.943

Quick one: relative viability for Cc1cccc(-c2nn3c(c2-c2ccnc4ccc(C(N)=O)cc24)CCC3)n1 [Galunisertib] ?
0.92

Quick one: relative viability for CC1(COc2ccc3c(c2)ncn3-c2ccc3cccc(N4CCC(N)CC4)c3n2)COC1 [Crenolanib] ?
0.97

Quick one: relative viability for COc1cc(OC)c(/C=C/S(=O)(=O)Cc2ccc(OC)c(NCC(=O)O)c2)c(OC)c1 [Rigosertib] ?
0.732

Quick one: relative viability for CC[C@@H]1CN(C(=O)NCC(F)(F)F)C[C@@H]1c1cnc2cnc3[nH]ccc3n12 [Upadacitinib] ?
0.97

---

system: SW872; test: relative viability vs DMSO control (72 h) (fraction); higher = more viable cells; conditions: 1.111 µM
Classes based on relative viability: 0: < 0.9; 1: ≥ 0.9 and < 1; 2: ≥ 1

COMPOUND	ANSWER_LABEL
COc1cc(OC)c(/C=C/S(=O)(=O)Cc2ccc(OC)c(NCC(=O)O)c2)c(OC)c1	0

Looking at CC(C)(O)CNc1nc(Nc2ccnc(C(F)(F)F)c2)nc(-c2cccc(C(F)(F)F)n2)n1 , which class would you pick?
2

Looking at CCN(CC)CCNC(=O)c1c(C)[nH]c(/C=C2\C(=O)Nc3ccc(F)cc32)c1C , which class would you pick?
0

Looking at O=c1sn(-c2cccc3ccccc23)c(=O)n1Cc1ccccc1 , which class would you pick?
2

---

tested on: SYO-1; assay: relative viability vs DMSO control (72 h) (fraction); higher = more viable cells; details: 3.333 µM
Readings of relative viability for the listed compounds
Reply with the value as a number alone.

Study these solved cases before continuing.
COMPOUND	relative viability
O=C(Nc1nc2cccc(-c3ccc(CN4CCS(=O)(=O)CC4)cc3)n2n1)C1CC1	0.724
COC(=O)N[C@@H](C)CNc1nccc(-c2cn(C(C)C)nc2-c2cc(Cl)cc(NS(C)(=O)=O)c2F)n1	0.877
COC(=O)[C@@]1(O)C[C@H]2O[C@]1(C)n1c3ccccc3c3c4c(c5c6ccccc6n2c5c31)C(=O)NC4 [K-252a]	0.128

Now for a further compound.
Quick one: relative viability for CC(C)Oc1ccc(-c2nn([C@@H](C)c3oc4ccc(F)cc4c(=O)c3-c3cccc(F)c3)c3ncnc(N)c23)cc1F ?
0.968

---

tested on: RD; assay: relative viability vs DMSO control (72 h) (fraction); higher = more viable cells; conditions: 0.00457 µM
Readings of relative viability for the listed molecules

Study these solved cases before continuing.
MOLECULE	relative viability
CCC(=O)N1CC[C@H](Nc2ncnc3c2CN(c2cnc(OC)c(C(F)(F)F)c2)CC3)C1	1.11
CO[C@H]1C[C@@H]2CC[C@@H](C)[C@@](O)(O2)C(=O)C(=O)N2CCCC[C@H]2C(=O)O[C@H]([C@H](C)C[C@@H]2CC[C@@H](OCCO)[C@H](OC)C2)CC(=O)[C@H](C)/C=C(\C)[C@@H](O)[C@@H](OC)C(=O)[C@H](C)C[C@H](C)/C=C/C=C/C=C/1C	0.888
CC1(COc2ccc3c(c2)ncn3-c2ccc3cccc(N4CCC(N)CC4)c3n2)COC1	1.05

Quick one: relative viability for COc1cc(CCc2cc(NC(=O)c3ccc(N4CC(C)NC(C)C4)cc3)n[nH]2)cc(OC)c1 (configuration not stated) ?
1.07

Quick one: relative viability for O=c1sn(-c2cccc3ccccc23)c(=O)n1Cc1ccccc1 ?
1.12

Quick one: relative viability for CCN1C(=O)N(c2c(F)c(OC)cc(OC)c2F)Cc2cnc3[nH]c(CN4CCOCC4)cc3c21 ?
1.06

Quick one: relative viability for COc1cc(Nc2ncc(F)c(Nc3ccc4c(n3)N(COP(=O)(O)O)C(=O)C(C)(C)O4)n2)cc(OC)c1OC ?
1.1

// data source = the supplement of paper PMC10883282
